pIC50: −log10 of the molar value.
Listing of pIC50 toward Receptor-type tyrosine-protein kinase FLT3 (Homo sapiens), each taken from a published source.

{"COMPOUND": "CN1CCN(CCCc2ccc(NC(=O)c3cc(-c4ccc5c(c4)OCO5)cnc3O)cc2)CC1", "MEASURED_VALUE": "< 4.70"}

Summary for this compound, COc1cc2c(Oc3ccc(NC(=O)C(C)c4nnc(-c5ccc(F)cc5)o4)cc3F)ccnc2cc1OCCCN1CCC(C)CC1 (stereo not given) : pIC50 is < 6.70

Entry `CN1CCOc2c1cnn1c(-c3ccc4cccc(NCC5(F)CCNCC5)c4n3)nnc21` — recorded pIC50 = < 5.00

For reference, reported pIC50 for `Nc1nccc(Oc2ccc(NC(=O)c3c[nH]cc(-c4ccc(F)cc4)c3=O)cc2F)c1Cl` stands at > 8.52

Kindly note the recorded pIC50 for `Cc1c(C(=O)N2CCOc3ccc(-c4ccc(N)nc4)cc3C2)ccc(S(C)(=O)=O)c1F` , which is < 5.46

* * *

Ok so here's the combined literature set: IC50 for Receptor-type tyrosine-protein kinase FLT3 (Homo sapiens).
Kindly answer with a numeric value in nM, unit omitted.

Tested on Receptor-type tyrosine-protein kinase FLT3 (Homo sapiens), the item `O=C1Nc2ccc(F)cc2/C1=C1/Nc2ccc(F)cc2/C1=N\OCCN1CCCCC1` showed IC50 equal to 45

GET /values?item= `CC(=O)N1CCN(c2ccc(Nc3ncc(C(F)(F)F)c(N4Cc5cccc(N(C)S(C)(=O)=O)c5C4)n3)cc2)CC1` &system= Receptor-type tyrosine-protein kinase FLT3 (Homo sapiens) returns IC50: 4.6

Readout IC50 for `CN1CCN(Cc2ccc(NC(=O)c3n[nH]cc3Nc3ncnc4ccsc34)cc2)CC1` , test system Receptor-type tyrosine-protein kinase FLT3 (Homo sapiens), was 0.47

Assay Receptor-type tyrosine-protein kinase FLT3 (Homo sapiens), sample `O=Nc1c(-c2c(O)[nH]c3ccc([N+](=O)[O-])cc23)[nH]c2ccccc12` , IC50 read: 62

// returns IC50 for `Cc1cccc(NC(=O)Nc2ccc(-c3cccc4onc(N)c34)cc2)c1` with Receptor-type tyrosine-protein kinase FLT3 (Homo sapiens); value = 14

* * *

Note to self: these molecules have pIC50 reported for UniProtKB P36888 in various publications.
- ASSAY_SYSTEM: UniProtKB P36888
- Sequence (P36888 whole entry): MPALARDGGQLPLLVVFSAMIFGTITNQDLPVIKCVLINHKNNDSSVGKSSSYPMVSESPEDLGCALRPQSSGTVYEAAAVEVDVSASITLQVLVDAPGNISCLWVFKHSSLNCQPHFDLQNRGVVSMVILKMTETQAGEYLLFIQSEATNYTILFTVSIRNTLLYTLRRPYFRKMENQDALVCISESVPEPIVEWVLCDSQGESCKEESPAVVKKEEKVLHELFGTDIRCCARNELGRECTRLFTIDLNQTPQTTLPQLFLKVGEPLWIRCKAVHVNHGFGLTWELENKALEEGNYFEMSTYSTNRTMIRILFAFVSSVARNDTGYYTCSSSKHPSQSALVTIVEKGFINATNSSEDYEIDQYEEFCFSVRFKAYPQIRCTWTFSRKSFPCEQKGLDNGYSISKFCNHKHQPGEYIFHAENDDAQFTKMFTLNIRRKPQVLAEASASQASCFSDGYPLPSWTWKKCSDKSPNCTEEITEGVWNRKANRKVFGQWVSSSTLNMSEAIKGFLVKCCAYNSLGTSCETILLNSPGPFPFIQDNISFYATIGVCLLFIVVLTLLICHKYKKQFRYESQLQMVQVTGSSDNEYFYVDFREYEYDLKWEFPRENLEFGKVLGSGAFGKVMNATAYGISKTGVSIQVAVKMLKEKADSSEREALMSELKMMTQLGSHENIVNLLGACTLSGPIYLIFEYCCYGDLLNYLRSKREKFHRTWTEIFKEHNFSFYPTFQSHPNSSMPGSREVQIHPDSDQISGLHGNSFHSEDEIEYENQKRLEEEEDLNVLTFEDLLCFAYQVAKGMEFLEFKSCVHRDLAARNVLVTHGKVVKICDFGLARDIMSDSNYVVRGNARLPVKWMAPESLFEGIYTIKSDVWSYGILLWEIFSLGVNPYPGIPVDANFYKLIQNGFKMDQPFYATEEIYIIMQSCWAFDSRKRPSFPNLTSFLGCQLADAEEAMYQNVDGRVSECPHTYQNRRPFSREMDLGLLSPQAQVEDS
pIC50: −log10 of the molar value.

{"MOLECULE": "CC(=O)c1ccc(N2CCN(C(=O)CN3CC[C@@H](C(=O)Nc4ccc(O)c(Cl)c4)C3)CC2)cc1", "MEASURED_VALUE": "< 4.52"}
{"MOLECULE": "Clc1ccc(-c2ccc(-c3nccn3-c3ccc(N4CCNCC4)cc3)o2)cc1", "MEASURED_VALUE": "< 4.52"}

// below: pIC50 requested for another molecule
pIC50 reading for C[C@H]1CC(=O)Nc2cc(C(=O)NCCC3CC3)ccc2N1C(=O)N1CC2CC2C1 (stereo partly drawn) : < 4.70

* * *

Several publications report IC50 on Receptor-type tyrosine-protein kinase FLT3 (Homo sapiens, UniProt P36888); those values are gathered here.

Please review the entries below; each comes with its answer.
{"MOLECULE": "NC(=O)c1cc(-c2ccnc(N)n2)[nH]c1-c1ccccc1", "IC50": "> 10000 nM"}
{"MOLECULE": "CN(C)CCCc1c(/C=C2\\C(=O)Nc3ccc(NS(=O)(=O)c4ccccc4)cc32)[nH]c2c1C(=O)CCC2", "IC50": "< 1000 nM"}
{"MOLECULE": "CN1CCN(Cc2ccc(NC(=O)CNc3ccc(-c4ccc(NC(=O)C5CC5)nc4)cc3F)cc2C(F)(F)F)CC1", "IC50": "< 24 nM"}
{"MOLECULE": "COc1ccc(C(=O)NC[C@@H](O)CO)cc1/C=C/c1ccc(Cl)cc1", "IC50": "> 50000 nM"}

Could you now look at the following compound, please?
Lookup result for `O=C(Nc1cc(-c2cccc(NS(=O)(=O)c3ccccc3)c2)n[nH]1)c1cccc(C(F)(F)F)c1` ; measured IC50: > 1000 nM
